Below is a list of entries, each paired with its recorded z-score value.
MEASUREMENT_DESCRIPTION: Pseudomonas biofilm growth suppression – PAO1 strain, BacTiter-Glo luminescence, LB-PBS, primary screen (AID 1144)
CONDITION_DESCRIPTION: P. aeruginosa PAO1 biofilm, 12 h, higher = more signal
Activity calls are given as the source filed them. How the calls were made is not given here.

These recorded examples may help you get a feel for the data.
{"SMILES_NOTATION": "COC(=O)[C@@]1(Cc2ccc(F)cc2)[C@H]2c3cc(C(=O)N4CCCC4)n(CCc4c[nH]c5ccccc45)c3C[C@H]2CN1C(=O)c1ccccc1", "z-score": "1.82 (inactive)"}
{"SMILES_NOTATION": "COC(=O)[C@@]1(Cc2ccc(F)cc2)[C@H]2c3cc(C(=O)N(C)C)n(Cc4ccc(OC(F)(F)F)cc4)c3C[C@H]2CN1C(=O)c1ccccc1", "z-score": "-0.362 (inactive)"}

Attention now shifts to the item below.
I'd like to know its z-score. The compound in question is `COc1ccc([Si](C)(C)[C@H]2[C@H](CC(=O)N3Cc4ccccc4C[C@H]3CO)O[C@@]3(C(=O)N(Cc4ccc(N5CCOC5=O)cc4)c4ccccc43)[C@@H]2C)cc1` -0.3 (inactive)
